- Test system: SK-MEL-3 (melanoma)
- protocol_details: Cell proliferation measurement (Cell Titer Glo), SK-MEL-3
- Assay type: cell-based
- measurement_context: Homo sapiens, SK-MEL3, SK-MEL-3 cells, 72 h treatment, read-out: Anti-proliferation IC50 SK-MEL-3 (melanoma)
Entries and their IC50
experimental_readout: IC50 (nM)

> print(dat)
                                item.smiles          system.name  result.modifier  measurement
1     Nc1ccc(F)cc1-c1ccc(C2=NNC(=O)CC2)cc1F  SK-MEL-3 (melanoma)                =         26.3
2      Cc1ccc(-c2ccc(C3=NNC(=O)CC3)cc2C)cc1  SK-MEL-3 (melanoma)                =         33.6
3    O=C1CCC(c2ccc(-c3cccc(O)c3)c(F)c2)=NN1  SK-MEL-3 (melanoma)                =         8.88
4             O=C1CCC(c2ccc(Cl)c(Cl)c2)=NN1  SK-MEL-3 (melanoma)                =         36.1
5  N#Cc1ccc(F)c(-c2ccc(C3=NNC(=O)CC3)cc2F)c1  SK-MEL-3 (melanoma)                >          100

###

- System: H4
- protocol_details: Cell proliferation measurement (Cell Titer Glo), H4
- Type: cell-based
- measurement_context: Homo sapiens, H4 cells, 72 h treatment, read-out: Anti-proliferation IC50 H4
Overview of reported IC50 across a group of compounds:
experimental_readout: IC50

> print(dat)
                                   compound  experimental.readout  measurement
1  O=C1CCC(c2cc(F)c(N3CCC(F)(F)C3)c(F)c2)=NN1                  IC50      41.1 nM
2      Cc1cc(C2=NNC(=O)CC2)ccc1-c1ccc(F)cc1                  IC50      36.6 nM
3  O=C1CCC(c2cc(F)c(N3CC4CC4C3)c(F)c2)=NN1 (stereo not drawn)                  IC50      30.9 nM

###

Let's go through some recorded pIC50 values for human full length PDE3B (Homo sapiens) together.
pIC50: −log10 of the molar value.
experimental_readout: pIC50

> print(dat)
                                    compound  measurement
 1        Cc1cnccc1-c1ccc(C2=NNC(=O)CC2)cc1F         7.41
 2      Cc1ccc(-c2ccc(C3=NNC(=O)CC3)cc2C)cc1         6.64
 3  O=C1CCC(c2ccc(N3CC(F)(F)C3)c(C(F)(F)F)c2)=NN1         6.68
 4  O=C1CCC(c2ccc(-c3ccc(F)cc3)c(C(F)(F)F)c2)=NN1         6.68
 5     Cc1cc(C2=NNC(=O)CC2)ccc1-c1cccc(F)c1F         6.92
 6        O=C1CCC(c2ccc(N3CCOCC3)c(F)c2)=NN1         6.80
 7  Cc1cc(C2=NNC(=O)CC2)ccc1-c1cc(F)c(F)cc1F         6.70
 8     Cc1cc(C2=NNC(=O)CC2)ccc1-c1ccc(Cl)cc1         6.70
 9  O=C1CCC(c2ccc(-c3cncc(C(F)(F)F)c3)c(F)c2)=NN1         6.96
10   Cc1ccc(-c2ccc(C3=NNC(=O)CC3)cc2F)c(C)c1         7.21
11  O=C1CCC(c2ccc(-c3cccc4[nH]ccc34)c(F)c2)=NN1         6.92
12    N#Cc1ccc(-c2ccc(C3=NNC(=O)CC3)cc2F)cc1         7.43
13       COc1ccccc1-c1ccc(C2=NNC(=O)CC2)cc1F         7.33
14      CCOc1ccccc1-c1ccc(C2=NNC(=O)CC2)cc1F         7.19
15  O=C1CCC(c2ccc(NCC(O)C(F)(F)F)c(C(F)(F)F)c2)=NN1 (racemic)         7.07
16             O=C1CCC(c2ccc(Cl)c(Cl)c2)=NN1         6.47
17         Cc1cc(C2=NNC(=O)CC2)ccc1-c1ccncc1         7.41
18  O=C1CCC(c2ccc(-c3ccc4cc[nH]c4c3)c(F)c2)=NN1         6.74
19        CCNc1ccc(C2=NNC(=O)CC2)cc1C(F)(F)F         7.14
20        Cc1ccncc1-c1ccc(C2=NNC(=O)CC2)cc1F         7.55
21  Cc1cc(C2=NNC(=O)CC2)ccc1-c1ccc(Cl)c(N)c1         6.68
22  O=C1CCC(c2ccc(-c3cnn(C(F)F)c3)c(C(F)(F)F)c2)=NN1         7.11
23  O=C1CCC(c2ccc(-c3ccc(F)c(F)c3F)c(F)c2)=NN1         7.10
24       O=C1CCC(c2ccc(-c3cncnc3)c(F)c2)=NN1         6.85
25        N#Cc1cc(C2=NNC(=O)CC2)ccc1N1CCOCC1         7.11
26     COc1ccc(-c2ccc(C3=NNC(=O)CC3)cc2C)cn1         7.05
27     Cc1cc(C2=NNC(=O)CC2)ccc1-c1c(F)cccc1F         6.59
28     Cc1cccc(-c2ccc(C3=NNC(=O)CC3)cc2F)c1C         6.82
29     Cc1cc(C2=NNC(=O)CC2)ccc1-c1ccc(F)cc1F         7.00
30   Cc1cc(C2=NNC(=O)CC2)ccc1-c1cc(F)cc(F)c1         6.70
31    O=C1CCC(c2ccc(-c3cccc(F)c3)c(F)c2)=NN1         7.06
32      Cc1cc(C2=NNC(=O)CC2)ccc1-c1cccc(F)c1         6.96
33        Cc1ncccc1-c1ccc(C2=NNC(=O)CC2)cc1F         7.17
34     COc1cc(-c2ccc(C3=NNC(=O)CC3)cc2F)ccn1         7.44
35  O=C1CCC(c2ccc(-c3ccccc3OC(F)(F)F)c(F)c2)=NN1         7.02
36       O=C1CCC(c2ccc(C3=CCCCC3)c(F)c2)=NN1         6.77
37      O=C1CCC(c2ccc(-c3ccccc3F)c(F)c2)=NN1         7.33
38    Nc1cc(-c2ccc(C3=NNC(=O)CC3)cc2F)ccc1Cl         7.46
39     COc1cccc(-c2ccc(C3=NNC(=O)CC3)cc2C)c1         7.04
40    N#Cc1cccc(-c2ccc(C3=NNC(=O)CC3)cc2F)c1         7.02

FYI, the data here is from patent US11897867B2.
